Experiment: Quantification of parent compounds and O-demethyl metabolites in rat brain, liver, kidney, serum and urine by UHPLC-HRMS after intraperitoneal injection
Format: in vivo, male Sprague-Dawley rats
Conditions: male, Sprague-Dawley, liver, ip, 1 mg/kg, 1 mg/kg i.p., 48 h after injection, one sample, estimated concentration, read-out: Liver concentration
PROPERTY LABEL: concentration at 48 h (ng/g)
Unit ng/g implied. Number only.

Just so you know, measured concentration at 48 h for CC(C)C(NC(=O)c1nn(Cc2ccc(F)cc2)c2ccccc12)C(=O)O (stereo not shown) came out at 31

---

Experiment: Quantification of parent compounds and O-demethyl metabolites in rat brain, liver, kidney, serum and urine by UHPLC-HRMS after intraperitoneal injection
Type: in vivo, male Sprague-Dawley rats
Settings: male, Sprague-Dawley, serum, ip, 1 mg/kg, 1 mg/kg i.p., 48 h after injection, one sample, estimated concentration, read-out: Serum concentration
PROPERTY LABEL: concentration at 48 h (ng/mL)
Unit ng/mL implied. Number only.

Just so you know, measured concentration at 48 h for CC(C)C(NC(=O)c1nn(Cc2ccc(F)cc2)c2ccccc12)C(=O)O (stereo not shown) came out at 6

---

Assay: Quantification of parent compounds and O-demethyl metabolites in rat brain, liver, kidney, serum and urine by UHPLC-HRMS after intraperitoneal injection
Assay type: in vivo, male Sprague-Dawley rats
Details: male, Sprague-Dawley, kidney/serum, ip, 1 mg/kg i.p., 180 min, read-out: Kidney/serum ratio, tissue (ng/g)/serum (ng/mL)
PROPERTY LABEL: Kp at 180 min
Would you mind answering with just the numeric figure?

Just so you know, measured Kp at 180 min for CC(C)C(NC(=O)c1nn(Cc2ccc(F)cc2)c2ccccc12)C(=O)O (stereo not shown) came out at 0.32

---

Kindly supply the reported Kp at 15 min values for the records listed here.
Assay: Quantification of parent compounds and O-demethyl metabolites in rat brain, liver, kidney, serum and urine by UHPLC-HRMS after intraperitoneal injection
Format: in vivo, male Sprague-Dawley rats
Settings: male, Sprague-Dawley, liver/serum, ip, 1 mg/kg i.p., 15 min, read-out: Liver/serum ratio, tissue (ng/g)/serum (ng/mL)
Procedure: 8 male Sprague-Dawley rats (8 weeks old, weighing between 385 and 425 g) were used as animal models (Janvier Labs, Le Genest-Saint-Isle, France). […] For parent compounds and O-demethyl metabolites estimated quantification, a calibration line in solvent from 2.5 to 250 ng/mL was included in each batch analysis, as well as different quality control samples (QCs) prepared with blank extracts and spiked at 200 ng/mL for evaluating matrix effect and apply a correction factor. […]
Would you mind answering with just the numeric figure?

Just so you know, measured Kp at 15 min for COC(=O)C(NC(=O)c1nn(Cc2ccc(F)cc2)c2ccccc12)C(C)C (stereo not drawn) came out at 0.56

Just so you know, measured Kp at 15 min for CC(C)C(NC(=O)c1nn(Cc2ccc(F)cc2)c2ccccc12)C(=O)O (stereo not drawn) came out at 4.47

Just so you know, measured Kp at 15 min for COC(=O)C(NC(=O)c1cn(CC2CCCCC2)c2ccccc12)C(C)C (stereo not drawn) came out at 18.8

---

Kindly supply the reported concentration at 15 min values for the records listed here.
Test: Quantification of parent compounds and O-demethyl metabolites in rat brain, liver, kidney, serum and urine by UHPLC-HRMS after intraperitoneal injection
Type: in vivo, male Sprague-Dawley rats
Conditions: male, Sprague-Dawley, serum, ip, 1 mg/kg, 1 mg/kg i.p., 15 min after injection, one sample, estimated concentration, read-out: Serum concentration
Unit ng/mL implied. Number only.

Just so you know, measured concentration at 15 min for COC(=O)C(NC(=O)c1nn(Cc2ccc(F)cc2)c2ccccc12)C(C)C (stereo not drawn) [AMB-FUBINACA] came out at 13

Just so you know, measured concentration at 15 min for COC(=O)C(NC(=O)c1cn(CC2CCCCC2)c2ccccc12)C(C)C (stereo not drawn) [AMB-CHMICA] came out at 45.1

Just so you know, measured concentration at 15 min for CC(C)C(NC(=O)c1nn(Cc2ccc(F)cc2)c2ccccc12)C(=O)O (stereo not drawn) [O-demethyl AMB-FUBINACA] came out at 25

---

Experiment: Quantification of parent compounds and O-demethyl metabolites in rat brain, liver, kidney, serum and urine by UHPLC-HRMS after intraperitoneal injection
Type: in vivo, male Sprague-Dawley rats
Details: male, Sprague-Dawley, liver, ip, 1 mg/kg, 1 mg/kg i.p., 180 min after injection, one sample, estimated concentration, read-out: Liver concentration
PROPERTY LABEL: concentration at 180 min (ng/g)
Unit ng/g implied. Number only.

Just so you know, measured concentration at 180 min for CC(C)C(NC(=O)c1nn(Cc2ccc(F)cc2)c2ccccc12)C(=O)O (centres unmarked) came out at 265

---

Kindly supply the reported Kp at 15 min values for the records listed here.
Assay: Quantification of parent compounds and O-demethyl metabolites in rat brain, liver, kidney, serum and urine by UHPLC-HRMS after intraperitoneal injection
Format: in vivo, male Sprague-Dawley rats
Conditions: male, Sprague-Dawley, kidney/serum, ip, 1 mg/kg i.p., 15 min, read-out: Kidney/serum ratio, tissue (ng/g)/serum (ng/mL)
Would you mind answering with just the numeric figure?

Just so you know, measured Kp at 15 min for COC(=O)C(NC(=O)c1nn(Cc2ccc(F)cc2)c2ccccc12)C(C)C (stereo not drawn) came out at 3.27

Just so you know, measured Kp at 15 min for COC(=O)C(NC(=O)c1cn(CC2CCCCC2)c2ccccc12)C(C)C (stereo not drawn) came out at 0.81

Just so you know, measured Kp at 15 min for CC(C)C(NC(=O)c1nn(Cc2ccc(F)cc2)c2ccccc12)C(=O)O (stereo not drawn) came out at 0.5

---

Assay: Quantification of parent compounds and O-demethyl metabolites in rat brain, liver, kidney, serum and urine by UHPLC-HRMS after intraperitoneal injection
Type: in vivo, male Sprague-Dawley rats
Conditions: male, Sprague-Dawley, kidney, ip, 1 mg/kg, 1 mg/kg i.p., 180 min after injection, one sample, estimated concentration, read-out: Kidney concentration
PROPERTY LABEL: concentration at 180 min (ng/g)
Unit ng/g implied. Number only.

Just so you know, measured concentration at 180 min for CC(C)C(NC(=O)c1nn(Cc2ccc(F)cc2)c2ccccc12)C(=O)O (centres unmarked) came out at 43.7

Just so you know, measured concentration at 180 min for COC(=O)C(NC(=O)c1nn(Cc2ccc(F)cc2)c2ccccc12)C(C)C (centres unmarked) came out at 3.36

---

Experiment: Quantification of parent compounds and O-demethyl metabolites in rat brain, liver, kidney, serum and urine by UHPLC-HRMS after intraperitoneal injection
Assay type: in vivo, male Sprague-Dawley rats
Conditions: male, Sprague-Dawley, kidney/serum, ip, 1 mg/kg i.p., 30 min, read-out: Kidney/serum ratio, tissue (ng/g)/serum (ng/mL)
Protocol: 8 male Sprague-Dawley rats (8 weeks old, weighing between 385 and 425 g) were used as animal models (Janvier Labs, Le Genest-Saint-Isle, France). […] For parent compounds and O-demethyl metabolites estimated quantification, a calibration line in solvent from 2.5 to 250 ng/mL was included in each batch analysis, as well as different quality control samples (QCs) prepared with blank extracts and spiked at 200 ng/mL for evaluating matrix effect and apply a correction factor. […]
PROPERTY LABEL: Kp at 30 min
Would you mind answering with just the numeric figure?

Just so you know, measured Kp at 30 min for COC(=O)C(NC(=O)c1cn(CC2CCCCC2)c2ccccc12)C(C)C (stereo not drawn) came out at 1

Just so you know, measured Kp at 30 min for COC(=O)C(NC(=O)c1nn(Cc2ccc(F)cc2)c2ccccc12)C(C)C (stereo not drawn) came out at 5.42

Just so you know, measured Kp at 30 min for CC(C)C(NC(=O)c1nn(Cc2ccc(F)cc2)c2ccccc12)C(=O)O (stereo not drawn) came out at 0.36

---

Test: Quantification of parent compounds and O-demethyl metabolites in rat brain, liver, kidney, serum and urine by UHPLC-HRMS after intraperitoneal injection
Type: in vivo, male Sprague-Dawley rats
Settings: male, Sprague-Dawley, serum, ip, 1 mg/kg, 1 mg/kg i.p., 30 min after injection, one sample, estimated concentration, read-out: Serum concentration
PROPERTY LABEL: concentration at 30 min
Please answer in the form of a number followed by its unit of measurement.

Just so you know, measured concentration at 30 min for COC(=O)C(NC(=O)c1cn(CC2CCCCC2)c2ccccc12)C(C)C (stereo not drawn) came out at 65.9 ng/mL

Just so you know, measured concentration at 30 min for COC(=O)C(NC(=O)c1nn(Cc2ccc(F)cc2)c2ccccc12)C(C)C (stereo not drawn) came out at 3.03 ng/mL

Just so you know, measured concentration at 30 min for CC(C)C(NC(=O)c1nn(Cc2ccc(F)cc2)c2ccccc12)C(=O)O (stereo not drawn) came out at 76.8 ng/mL

---

Assay: Quantification of parent compounds and O-demethyl metabolites in rat brain, liver, kidney, serum and urine by UHPLC-HRMS after intraperitoneal injection
Type: in vivo, male Sprague-Dawley rats
Conditions: male, Sprague-Dawley, urine, ip, 1 mg/kg, 1 mg/kg i.p., 300 min
Protocol: 8 male Sprague-Dawley rats (8 weeks old, weighing between 385 and 425 g) were used as animal models (Janvier Labs, Le Genest-Saint-Isle, France). […] For parent compounds and O-demethyl metabolites estimated quantification, a calibration line in solvent from 2.5 to 250 ng/mL was included in each batch analysis, as well as different quality control samples (QCs) prepared with blank extracts and spiked at 200 ng/mL for evaluating matrix effect and apply a correction factor. […]
PROPERTY LABEL: concentration at 300 min (ng/mL)
Unit ng/mL implied. Number only.

Just so you know, measured concentration at 300 min for CC(C)C(NC(=O)c1nn(Cc2ccc(F)cc2)c2ccccc12)C(=O)O (stereo not shown) came out at 1.13
